Assay: melting temperature; melt of duplexes
Conditions: sodium 0.0675 M; strand 1 µM
Tm listing for selected substances.
Kindly provide the numeric value in °C only, without the unit symbol.

CGACGTGCGATATGTGCTG+CAGCACATATAGCACGTCG ((((((((.((((((((((+)))))))))).))))))))    57.5

Data request: Any idea what its Tm is? The substance is CGACGTGCCACATGTGCTG+CAGCACATAGTGCACGTCG ((((((((...((((((((+))))))))...))))))))
Data returned: 46.9

Data request: What do you get for CGACGTGCTCGATGTGCTG+CAGCACATTGAGCACGTCG ((((((((((.((((((((+)))))))).)))))))))) ?
Data returned: 60.7

Data request: What do you get for CGACGTGCCGCATGTGCTG+CAGCACATAGCGCACGTCG ((((((((...((((((((+))))))))...)))))))) ?
Data returned: 53.9

----------
Assay: melting temperature; UV melt of duplexes
Settings: sodium 0.12 M; strand 2 µM
Tm listing for selected substances.
Kindly provide the numeric value in °C only, without the unit symbol.

See these solved cases before continuing.
TAGTATATCGCAGCATCATACAGGC+GCCTGTATGATGCTGCGATATACTA (((((((((((((((((((((((((+)))))))))))))))))))))))))    64.7
TAACCATACTGAATACCTTTTGACG+CGTCAAAAGGTATTCAGTATGGTTA (((((((((((((((((((((((((+)))))))))))))))))))))))))    60.2
CTGGTCTGGATCTGAGAACTTCAGG+CCTGAAGTTCTCAGATCCAGACCAG (((((((((((((((((((((((((+)))))))))))))))))))))))))    65.8
GCCCCTCCACTGGCCGACGGCAGCAGGCTC+GAGCCTGCTGCCGTCGGCCAGTGGAGGGGC ((((((((((((((((((((((((((((((+))))))))))))))))))))))))))))))    79.8
AGCAGTCCGCCACACCCTGA+TCAGGGTGTGGCGGACTGCT ((((((((((((((((((((+))))))))))))))))))))    69.9
GTTCACGTCCGAAAGCTCGAAAAAGGATAC+GTATCCTTTTTCGAGCTTTCGGACGTGAAC ((((((((((((((((((((((((((((((+))))))))))))))))))))))))))))))    68.2
GTCATACGACTGAGTGCAACATTGTTCAAA+TTTGAACAATGTTGCACTCAGTCGTATGAC ((((((((((((((((((((((((((((((+))))))))))))))))))))))))))))))    66.8
TTCCAAAAGGAGTTATGAGTTGCGA+TCGCAACTCATAACTCCTTTTGGAA (((((((((((((((((((((((((+)))))))))))))))))))))))))    63

With those in mind, consider the next substance.
Data request: Any idea what its Tm is? The substance is GTGGTGGGCCGTGCGCTCTG+CAGAGCGCACGGCCCACCAC ((((((((((((((((((((+))))))))))))))))))))
Data returned: 72.7
